System: L-02 cells
Assay name: CCK-8 cytotoxicity assay, normal liver L-02
Format: cell-based
Condition context: Homo sapiens, L02; CCK-8, 48 h, normal liver cells, mean ± SD of three experiments; read-out: IC50 L-02
Assay endpoint: IC50 (µM)

[[record]]
structure = "C[C@H]1CCC/C=C/[C@@H]2C[C@H](O)C[C@H]2[C@H](OC(=O)/C=C\\C(=O)OCCCCOC(=O)c2ccc(N=C=S)cc2)/C=C/C(=O)O1"
readout_relation = "="
obs_value = 27.8

[[record]]
structure = "C[C@H]1CCC/C=C/[C@@H]2C[C@H](OC(=O)CCC(=O)OCCOCCOC(=O)c3ccc(N=C=S)cc3)C[C@H]2[C@H](OC(=O)CCC(=O)OCCOCCOC(=O)c2ccc(N=C=S)cc2)/C=C/C(=O)O1"
readout_relation = ">"
obs_value = 80

[[record]]
structure = "C[C@H]1CCC/C=C/[C@@H]2C[C@H](O)C[C@H]2[C@H](OC(=O)/C=C\\C(=O)OCCCCCCOC(=O)c2ccc(N=C=S)cc2)/C=C/C(=O)O1"
readout_relation = "="
obs_value = 23.9


----------
System: HeLa cells
Assay name: CCK-8 antiproliferative assay, HeLa
Format: cell-based, human
Condition context: SI = IC50(L-02)/IC50(HeLa)
Class field: derived from SIHeLa, selectivity index between L-02 and HeLa; ranges low group: < 3; middle group: ≥ 3 and < 5; high group: ≥ 5

[[record]]
compound = "C[C@H]1CCC/C=C/[C@@H]2C[C@H](O)C[C@H]2[C@H](OC(=O)/C=C\\C(=O)OCC#CCOC(=O)c2ccc(N=C=S)cc2)/C=C/C(=O)O1"
discrete_label = "middle group"

[[record]]
compound = "C[C@H]1CCC/C=C/[C@@H]2C[C@H](O)C[C@H]2[C@H](OC(=O)CCC(=O)OCC#CCOC(=O)c2ccc(N=C=S)cc2)/C=C/C(=O)O1"
discrete_label = "middle group"

[[record]]
compound = "C[C@H]1CCC/C=C/[C@@H]2C[C@H](OC(=O)/C=C\\C(=O)OCCOCCOC(=O)c3ccc(N=C=S)cc3)C[C@H]2[C@H](OC(=O)/C=C\\C(=O)OCCOCCOC(=O)c2ccc(N=C=S)cc2)/C=C/C(=O)O1"
discrete_label = "low group"

[[record]]
compound = "C[C@H]1CCC/C=C/[C@@H]2C[C@H](O)C[C@H]2[C@H](OC(=O)/C=C\\C(=O)OCCOCCOC(=O)c2ccc(N=C=S)cc2)/C=C/C(=O)O1"
discrete_label = "high group"

[[record]]
compound = "O=C(O)c1ccc(N=C=S)cc1 [Compound 2, 4-Carboxyphenyl isothiocyanate, reference compound]"
discrete_label = "low group"

[[record]]
compound = "C[C@H]1CCC/C=C/[C@@H]2C[C@H](O)C[C@H]2[C@H](O)/C=C/C(=O)O1"
discrete_label = "low group"

[[record]]
compound = "C[C@H]1CCC/C=C/[C@@H]2C[C@H](O)C[C@H]2[C@H](OC(=O)/C=C\\C(=O)OCCCCOC(=O)c2ccc(N=C=S)cc2)/C=C/C(=O)O1"
discrete_label = "low group"

[[record]]
compound = "C[C@H]1CCC/C=C/[C@@H]2C[C@H](O)C[C@H]2[C@H](OC(=O)CCC(=O)OCCCCOC(=O)c2ccc(N=C=S)cc2)/C=C/C(=O)O1"
discrete_label = "middle group"

[[record]]
compound = "C[C@H]1CCC/C=C/[C@@H]2C[C@H](OC(=O)CCC(=O)OCCOC(=O)c3ccc(N=C=S)cc3)C[C@H]2[C@H](OC(=O)CCC(=O)OCCOC(=O)c2ccc(N=C=S)cc2)/C=C/C(=O)O1"
discrete_label = "high group"

[[record]]
compound = "C[C@H]1CCC/C=C/[C@@H]2C[C@H](O)C[C@H]2[C@H](OC(=O)CCC(=O)Oc2ccc(OC(=O)c3ccc(N=C=S)cc3)cc2)/C=C/C(=O)O1"
discrete_label = "low group"

[[record]]
compound = "C[C@H]1CCC/C=C/[C@@H]2C[C@H](O)C[C@H]2[C@H](OC(=O)CCC(=O)OCCOC(=O)c2ccc(N=C=S)cc2)/C=C/C(=O)O1"
discrete_label = "high group"

[[record]]
compound = "C[C@H]1CCC/C=C/[C@@H]2C[C@H](OC(=O)/C=C\\C(=O)OCCOC(=O)c3ccc(N=C=S)cc3)C[C@H]2[C@H](OC(=O)/C=C\\C(=O)OCCOC(=O)c2ccc(N=C=S)cc2)/C=C/C(=O)O1"
discrete_label = "high group"

[[record]]
compound = "C[C@H]1CCC/C=C/[C@@H]2C[C@H](O)C[C@H]2[C@H](OC(=O)/C=C\\C(=O)OCCOC(=O)c2ccc(N=C=S)cc2)/C=C/C(=O)O1"
discrete_label = "high group"

[[record]]
compound = "C[C@H]1CCC/C=C/[C@@H]2C[C@H](OC(=O)c3ccc(N=C=S)cc3)C[C@H]2[C@H](O)/C=C/C(=O)O1"
discrete_label = "low group"

[[record]]
compound = "CC(=O)O[C@H]1C(=O)[C@@]2(C)[C@H]([C@H](OC(=O)c3ccccc3)[C@]3(O)C[C@H](OC(=O)[C@H](O)[C@@H](NC(=O)c4ccccc4)c4ccccc4)C(C)=C1C3(C)C)[C@]1(OC(C)=O)CO[C@@H]1C[C@@H]2O [paclitaxel, reference compound]"
discrete_label = "middle group"


The reported numbers originate from paper PMC10254530.
